Target: ERα (Homo sapiens, UniProt P03372)
Sequence (P03372 whole entry): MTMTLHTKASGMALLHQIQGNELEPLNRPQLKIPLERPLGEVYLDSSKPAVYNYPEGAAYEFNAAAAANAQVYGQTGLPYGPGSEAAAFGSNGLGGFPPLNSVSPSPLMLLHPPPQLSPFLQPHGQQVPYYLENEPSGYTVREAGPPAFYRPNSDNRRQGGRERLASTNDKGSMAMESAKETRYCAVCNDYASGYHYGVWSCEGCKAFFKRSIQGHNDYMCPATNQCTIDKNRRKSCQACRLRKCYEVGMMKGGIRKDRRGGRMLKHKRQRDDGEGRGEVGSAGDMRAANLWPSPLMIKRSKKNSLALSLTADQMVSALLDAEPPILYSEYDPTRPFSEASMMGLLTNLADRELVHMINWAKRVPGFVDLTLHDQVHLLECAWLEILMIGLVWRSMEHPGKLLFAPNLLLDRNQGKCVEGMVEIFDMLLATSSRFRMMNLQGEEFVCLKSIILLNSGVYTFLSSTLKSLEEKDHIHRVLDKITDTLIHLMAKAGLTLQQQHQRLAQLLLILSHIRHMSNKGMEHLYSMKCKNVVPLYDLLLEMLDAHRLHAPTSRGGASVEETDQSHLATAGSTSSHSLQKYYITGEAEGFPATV
Assay: Degradation of ERα in T-47D cells (immunoblotting, 4 h)
Format: cell-based
Parameters: host or cells: T-47D
Settings: 10nM compound
Protocol: T-47D cells were inoculated into 6-well plates at a density of 3×10^5 cells/well and cultured at 37°C, 5% CO2 for 24 h. After the cells were attached to the wall, 1µL of the compound solution in dimethyl sulfoxide (final concentration 0.15-1000 nM) was added and continued to be cultured in the incubator with 5% CO2 at 37°C for 4 h. […]
Measurement Type: Degradation rate (%) of ERα in T-47D cells

{"Compound": "O=C1CCC(N2Cc3c(ccc4c3OCC43CCN(C4CCN(C(=O)c5ccc([C@@H]6c7ccc(O)cc7CC[C@@H]6c6ccccc6)cc5)CC4)CC3)C2=O)C(=O)N1 (some centres unmarked) [H9]", "Result": "-31%"}
{"Compound": "O=C1CCC(N2Cc3ccc4c(c3C2=O)OCC42CCN(C3CCN(C(=O)C4(F)CCN(c5ccc([C@@H]6c7ccc(O)cc7CC[C@@H]6c6ccccc6)cc5)CC4)CC3F)CC2)C(=O)N1 (some centres unmarked) [A93]", "Result": "71%"}
{"Compound": "CN(CC1CCN(c2ccc([C@@H]3c4ccc(O)cc4CC[C@@H]3c3ccccc3)cc2)CC1)[C@H]1CC[C@@H](C(=O)N2CCC3(CC2)COc2c3ccc3c2CN(C2CCC(=O)NC2=O)C3=O)CC1 (some centres unmarked) [B34]", "Result": "83%"}
{"Compound": "N#CC1(CN2CCC3(CC2)COc2c3ccc3c2CN(C2CCC(=O)NC2=O)C3=O)CCN(CC2CCN(c3ccc([C@@H]4c5ccc(O)cc5CC[C@@H]4c4ccccc4)cc3)CC2)CC1 (some centres unmarked) [N7]", "Result": "67%"}
{"Compound": "O=C1CCC(N2Cc3c(ccc4c3OC3(CC4)CCN(C(=O)CN4CCC5(CC4)CCN(c4ccc([C@@H]6c7ccc(O)cc7CC[C@@H]6c6ccccc6)cc4)CC5)CC3)C2=O)C(=O)N1 (some centres unmarked) [A65]", "Result": "50%"}

---

Target: ERα (Homo sapiens, UniProt P03372)
Test: Degradation of ERα in MCF-7 cells (immunoblotting, 4 h)
Assay type: cell-based
Conditions: 1nM compound
Measurement Type: Degradation rate (%) of ERα in MCF-7 cells

{"Molecule": "CN(CC1CCN(c2ccc([C@@H]3c4ccc(O)cc4CC[C@@H]3c3ccccc3)cc2)CC1)[C@H]1CC[C@H](C(=O)N2CCC3(CC2)COc2c3ccc3c2CN(C2CCC(=O)NC2=O)C3=O)CC1 (stereo partly drawn)", "Target Under Test": "ERα (Homo sapiens, UniProt P03372)", "Quantitative Readout": -4}
{"Molecule": "O=C1CCC(N2Cc3cc4c(cc3C2=O)CCC2(CN(C(=O)CN3CCC5(CC3)CCN(c3ccc([C@@H]6c7ccc(O)cc7CC[C@@H]6c6ccccc6)cc3)CC5)C2)O4)C(=O)N1 (stereo partly drawn)", "Target Under Test": "ERα (Homo sapiens, UniProt P03372)", "Quantitative Readout": 21}
{"Molecule": "CN(C(=O)CN1CCC2(CC1)COc1c2ccc2c1CN(C1CCC(=O)NC1=O)C2=O)C1CCC2(CC1)CN(c1ccc([C@@H]3c4ccc(O)cc4CC[C@@H]3c3ccccc3)cc1)C2 (stereo partly drawn)", "Target Under Test": "ERα (Homo sapiens, UniProt P03372)", "Quantitative Readout": 50}
{"Molecule": "O=C1CCC(N2Cc3ccc4c(c3C2=O)OCC2(CCN(C3CC5(CCN(c6ccc([C@@H]7c8ccc(O)cc8CC[C@@H]7c7ccccc7)cc6)CC5)C3)CC2)C4)C(=O)N1 (stereo partly drawn)", "Target Under Test": "ERα (Homo sapiens, UniProt P03372)", "Quantitative Readout": 10}
{"Molecule": "C[C@@H]1Cc2c(ccc3[nH]ncc23)[C@@H](c2c(F)cc(N3CCC4(CCN(C(=O)CN5CCC6(CC5)COc5c6ccc6c5CN(C5CCC(=O)NC5=O)C6=O)CC4)CC3)cc2F)N1CC(F)F (stereo partly drawn)", "Target Under Test": "ERα (Homo sapiens, UniProt P03372)", "Quantitative Readout": 41}
{"Molecule": "O=C1CCC(N2C(=O)c3cc4c(cc3C2=O)C2(CCN(CC3CCC5(CC3)CCN(c3ccc([C@@H]6c7ccc(O)cc7CC[C@@H]6c6ccccc6)cc3)CC5)CC2)CO4)C(=O)N1 (stereo partly drawn)", "Target Under Test": "ERα (Homo sapiens, UniProt P03372)", "Quantitative Readout": 11}
{"Molecule": "O=C1CCC(N2Cc3c(ccc4c3OCC43CCN(C(=O)C4CN(CC5CCN(c6ccc([C@@H]7c8ccc(O)cc8CC[C@@H]7c7ccccc7)cc6)CC5)C4)CC3)C2=O)C(=O)N1 (stereo partly drawn) [K33]", "Target Under Test": "ERα (Homo sapiens, UniProt P03372)", "Quantitative Readout": 57}
{"Molecule": "C[C@@H]1C[C@H](N2CCC3(CC2)COc2c3ccc3c2CN(C2CCC(=O)NC2=O)C3=O)CCN1C1CC2(CCN(c3ccc([C@@H]4c5ccc(O)cc5CC[C@@H]4c4ccccc4)cc3)CC2)C1 (stereo partly drawn)", "Target Under Test": "ERα (Homo sapiens, UniProt P03372)", "Quantitative Readout": -1}
{"Molecule": "O=C1CCC(N2Cc3c(ccc4c3OCC43CCN(C4CCC5(CC4)CCN(c4ccc(C6=C(c7ccc(Cl)cc7Cl)CCCc7cc(C(=O)O)ccc76)cc4)CC5)CC3)C2=O)C(=O)N1 (stereo not drawn)", "Target Under Test": "ERα (Homo sapiens, UniProt P03372)", "Quantitative Readout": 14}
{"Molecule": "O=C1CCC(N2Cc3cc4c(cc3C2=O)CCC2(CN(C(=O)CN3CCC5(CCN(c6ccc([C@@H]7c8ccc(O)cc8CC[C@@H]7c7ccccc7)cc6)CC5)C3)C2)O4)C(=O)N1 (stereo partly drawn)", "Target Under Test": "ERα (Homo sapiens, UniProt P03372)", "Quantitative Readout": -6}
{"Molecule": "O=C1CCC(N2Cc3c(ccc4c3OCC43CCN(C4CCN(C(=O)C5CCN(c6ccc(C7c8ccc(O)cc8CCC7c7ccccc7)cc6)CC5)C(C(=O)N5CCCCC5)C4)CC3)C2=O)C(=O)N1 (stereo not drawn)", "Target Under Test": "ERα (Homo sapiens, UniProt P03372)", "Quantitative Readout": 61}
{"Molecule": "O=C1CCC(N2Cc3c(ccc4c3OCC43CCN(c4ccc(C(=O)N5CCN(c6ccc([C@@H]7c8ccc(O)cc8CC[C@@H]7c7ccccc7)cc6)CC5)cn4)CC3)C2=O)C(=O)N1 (stereo partly drawn)", "Target Under Test": "ERα (Homo sapiens, UniProt P03372)", "Quantitative Readout": 21}
{"Molecule": "O=C1CCC(N2Cc3c(ccc4c3OCC43CCN(CC(=O)N4CCC(C#Cc5ccc([C@@H]6c7ccc(O)cc7CC[C@@H]6c6ccccc6)cc5)CC4)CC3)C2=O)C(=O)N1 (stereo partly drawn)", "Target Under Test": "ERα (Homo sapiens, UniProt P03372)", "Quantitative Readout": 45}
{"Molecule": "O=C1CCC(N2Cc3cc4c(cc3C2=O)OC2(CC4)CN(C(=O)CN3CCC4(CCN(c5ccc([C@@H]6c7ccc(O)cc7CC[C@@H]6c6ccccc6)cc5)CC4)C3)C2)C(=O)N1 (stereo partly drawn)", "Target Under Test": "ERα (Homo sapiens, UniProt P03372)", "Quantitative Readout": 29}
{"Molecule": "O=C1CCC(N2Cc3c(ccc4c3OCC43CCN(C(=O)CN4CCC(Oc5ccc([C@@H]6c7ccc(O)cc7CC[C@@H]6c6ccccc6)cc5)CC4)CC3)C2=O)C(=O)N1 (stereo partly drawn)", "Target Under Test": "ERα (Homo sapiens, UniProt P03372)", "Quantitative Readout": 38}
{"Molecule": "C[C@@H]1Cc2c([nH]c3ccccc23)[C@@H](c2c(F)cc(N3CCC(C(=O)N4CCC(N5CCC6(CC5)COc5c6ccc6c5CN(C5CCC(=O)NC5=O)C6=O)CC4)CC3)cc2F)N1CC(F)F (stereo partly drawn)", "Target Under Test": "ERα (Homo sapiens, UniProt P03372)", "Quantitative Readout": 19}
{"Molecule": "O=C1CCC(N2Cc3cc4c(cc3C2=O)CCC2(CN(C3CCC(N5CCN(c6ccc([C@@H]7c8ccc(O)cc8CC[C@@H]7c7ccccc7)cc6)CC5)CC3)C2)O4)C(=O)N1 (stereo partly drawn)", "Target Under Test": "ERα (Homo sapiens, UniProt P03372)", "Quantitative Readout": -13}
{"Molecule": "CN(C)C(=O)[C@@H]1CC(N2CCC3(CC2)COc2c3ccc3c2CN(C2CCC(=O)NC2=O)C3=O)CCN1C(=O)C1CCN(c2ccc([C@@H]3c4ccc(O)cc4CC[C@@H]3c3ccccc3)cc2)CC1 (stereo partly drawn)", "Target Under Test": "ERα (Homo sapiens, UniProt P03372)", "Quantitative Readout": 43}
{"Molecule": "O=C1CCC(N2Cc3ccc4c(c3C2=O)CC2(CCN(C3CCC5(CC3)CN(c3ccc([C@@H]6c7ccc(O)cc7CC[C@@H]6c6ccccc6)cc3)C5)CC2)CO4)C(=O)N1 (stereo partly drawn)", "Target Under Test": "ERα (Homo sapiens, UniProt P03372)", "Quantitative Readout": -11}
{"Molecule": "O=C1CCC(N2Cc3c(ccc4c3OCC43CCN(CC(=O)N4CCC5(CCN(c6ccc([C@@H]7c8ccc(O)cc8CC[C@@H]7c7ccccc7)cc6)CC5)C4)CC3)C2=O)C(=O)N1 (stereo partly drawn)", "Target Under Test": "ERα (Homo sapiens, UniProt P03372)", "Quantitative Readout": 26}
{"Molecule": "C[C@H]1CN(C(=O)C2(F)CCN(c3ccc([C@@H]4c5ccc(O)cc5CC[C@@H]4c4ccccc4)cc3)CC2)CCC1N1CCC2(CC1)COc1c2ccc2c1CN(C1CCC(=O)NC1=O)C2=O (stereo partly drawn)", "Target Under Test": "ERα (Homo sapiens, UniProt P03372)", "Quantitative Readout": 50}
